Please provide measured self-cleavage for the entries that follow.
B1: LINE1-full (parent)
chain: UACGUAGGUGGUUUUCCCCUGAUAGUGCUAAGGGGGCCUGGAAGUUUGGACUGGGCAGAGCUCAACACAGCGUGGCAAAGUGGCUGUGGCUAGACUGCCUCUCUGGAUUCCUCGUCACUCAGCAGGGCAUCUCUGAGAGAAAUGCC

Variants of: B1
Assay: self-cleavage, relative activity (ratio to wild type); higher = more cleavage; in vitro, sequencing; the parent is a self-cleaving ribozyme
Numbers only.

Some solved cases for reference:
> print(dat)
   mutation.code  experimental.readout  value.observed
1     A43G G114A         self-cleavage            1.05
2      A42C A43U         self-cleavage            0.72
3           G32U         self-cleavage            0.98
4      U26C G44A         self-cleavage            1.17

Each variant below has a recorded value; state its self-cleavage.
1. U15C A140C
2. G7A U134C
3. U15A A77C

Return:
[1.12, 1.17, 0.7]

The following variants each have a reported value; give each one's self-cleavage.
1. A78U C116G
2. U1C U45A
3. G88A A117G
4. U87G U130C

Return:
[2.13, 0.84, 0.07, 0.41]
